All figures here come from paper PMC5100899.

TEST DETAILS: physchem
MEASUREMENT CONDITIONS: phosphate-buffered saline, pH 6.5, Solubility
MEASURED QUANTITY: solubility

Task item: Fill in the blank: the reported solubility of Nc1ncnc2c1c(-c1ccc3nc(OC4CC4)ccc3c1)nn2CC1CCOCC1 [Compound 29] is ____.
Reply: < 20 µM

* * *

TEST DETAILS: in vitro
MEASUREMENT CONDITIONS: mouse
MEASURED QUANTITY: EC50 (nM)
Record the value in nM, omitting the unit from your answer.

Task item: Fill in the blank: the reported EC50 of CC(C)(O)Cn1nc(-c2ccc3nc(OC4CC4)ccc3c2)c2c(N)ncnc21 [Compound 33] is ____.
Reply: 1330
